# test: Kinetic solubility of the compound
# Assay type: physicochemical
quantityKind: solubility kinetic (µM)

> print(dat)
                                 smilescode        quantitykind  unitofmeasurement  reportedvalue
1  CCOC(=O)N[C@@H]1CC[C@@H]2[C@@H](C1)C[C@H]1C(=O)O[C@H](C)[C@H]1[C@H]2/C=C/c1ccc(-c2ccoc2)cn1  solubility kinetic                 µM             12

(I) CCOC(=O)N[C@@H]1CC[C@@H]2[C@@H](C1)C[C@H]1C(=O)O[C@H](C)[C@H]1[C@H]2/C=C/c1ccc(-c2ccccc2C#N)cn1
(II) CCOC(=O)N[C@@H]1CC[C@@H]2[C@@H](C1)C[C@H]1C(=O)O[C@H](C)[C@H]1[C@H]2/C=C/c1ccc(-c2ccccn2)cn1
query: Please state the entry with greater solubility kinetic among I and II . When you have decided, please share the label of that item.
result: II
(II: 75 µM, I: 12 µM)

====

# test: AUC in rat
# Assay type: ADME, organism-based
# conditions: plasma
quantityKind: AUC (ng·h/mL)

(P) CCOC(=O)N[C@@H]1CC[C@@H]2[C@@H](C1)C[C@H]1C(=O)O[C@H](C)[C@H]1[C@H]2/C=C/c1ccc(-c2ccccn2)cn1
(Q) CCOC(=O)N[C@@H]1CC[C@@H]2[C@@H](C1)C[C@H]1C(=O)O[C@H](C)[C@H]1[C@H]2/C=C/c1ccc(-c2cccc(OC)c2)cn1
(R) CCOC(=O)N[C@@H]1CC[C@@H]2[C@@H](C1)C[C@H]1C(=O)O[C@H](C)[C@H]1[C@H]2/C=C/c1ccc(-c2cccc(F)c2)cn1 [VORAPAXAR]
(S) CCOC(=O)N[C@@H]1CC[C@@H]2[C@@H](C1)C[C@H]1C(=O)O[C@H](C)[C@H]1[C@H]2/C=C/c1ccc(-c2ccccc2C#N)cn1
query: Could you put the items above in increasing order of their AUC? Use the labels to give the ranking in the order requested.
result: Q, R, S, P
(Q: 319 ng·h/mL, R: 3060 ng·h/mL, S: 5220 ng·h/mL, P: 10100 ng·h/mL)

====

# test: AUC (0 to 24 hrs) in monkey at 0.1 mg/kg, po
# Type: ADME, organism-based, Macaca mulatta
# Parameters: time < 24 hr, dose 0.1 mg/kg, route oral
# conditions: rhesus monkey, plasma
quantityKind: AUC(0-t) at 24 h (ng·h/mL)
All answers are understood in ng·h/mL, so give the number only.

query: Give its AUC(0-t) at 24 h value. Item: "CCOC(=O)N[C@@H]1CC[C@@H]2[C@@H](C1)C[C@H]1C(=O)O[C@H](C)[C@H]1[C@H]2/C=C/c1ccc(-c2ccccn2)cn1"
result: 50

====

# test: Cmax in monkey at 1 mg/kg, po
# Format: ADME, organism-based, Macaca mulatta
# Set-up: dose 1 mg/kg, route oral
# conditions: rhesus monkey, in vivo
quantityKind: Cmax (ng/mL)
All answers are understood in ng/mL, so give the number only.

query: Give its Cmax value. Item: "CCOC(=O)N[C@@H]1CC[C@@H]2[C@@H](C1)C[C@H]1C(=O)O[C@H](C)[C@H]1[C@H]2/C=C/c1ccc(-c2ccccn2)cn1"
result: 236
